The origin of these recorded values is paper PMC5540273.

Test system: RSK4(Kin.Dom.1-N-terminal)
Construct: gene RPS6KA6
measurement.conditions: concentration: 1 μM, replicates: in singlicate; n = 1;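 further: KINOMEscan kinase panel screen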
readout.name: %Inh (%)
Enter your answer as a number in %; do not include the unit.

INSERT INTO results (compound, endpoint_value) VALUES
  ('COc1ccc(CNC(=O)NC2CCN(c3ccnc(Nc4ccc(OC)cc4)n3)C2)cc1 (stereo not shown) [GSK1379727]', 0),
  ('O=C(NCCCN1CCOCC1)c1cccc(Nc2nccc(Nc3ccc(Oc4ccccc4)cc3)n2)c1 [GW663929]', 0),
  ('O=C(Nc1n[nH]c2cc(-c3cccc(F)c3)ccc12)C1CC1 [SB-735464]', 9),
  ('CC(C)(C)n1cnc2c(N)ncnc21 [SKF-97359]', 0),
  ('c1ccc(-c2n[nH]cc2-c2ccnc3ccccc23)nc1 [GW271431]', 0);

Returns the measured %Inh for the input compound. Input: CN(C(=O)c1ccc(-c2cc(-c3c[nH]nc3-c3ccccn3)ccn2)cc1)C1CCOCC1 [GW810083]
0

# query: %Inh of entry COCCNC(=O)c1ccc(-c2cc(C(=O)NC3CC3)cc(F)c2C)cc1 [GW868318]
41

Reported %Inh for O=C(c1ccc(-c2cc(-c3c[nH]nc3-c3ccccn3)ccn2)cc1)N1CCOCC1 [GW812171] : what is it?
9

Look up %Inh: O=c1cc(N2CCOCC2)nc2n(Cc3cccc(Cl)c3Cl)c(C3CC3)nn12 [GSK2358994]
0

Requested read-out: %Inh. Entry: O=C(NCCNc1ccnc(Nc2ccc(F)cc2)n1)c1cc2ccccc2s1 [GSK1379874]
0

# input compound: Cl.Oc1cccc(Nc2ccnc3cc(-c4ccncc4)ccc23)c1 [GW494601] ; wanted: its %Inh
0

Using the record for Cc1c(Cn2c(C)nn3c(=O)cc(N4CCOC(C)C4)nc23)cccc1C(F)(F)F (stereo not shown) [GSK2344444] , report its %Inh.
1

Consider the compound shown here: NS(=O)(=O)c1cccc(-c2ccc3nccc(-c4cccc(S(N)(=O)=O)c4)c3c2)c1 [GW867253] What is its recorded %Inh?
12

====

Tested on: PDGFRA
measurement.conditions: concentration: 1 μM, replicates: in singlicate; n = 1
Reported values of %Inh for individual entries
Your answer should be a plain number; it is taken to be in %.

A selection of reference data follows.
INSERT INTO measurements (compound_string, readout_name, measurement_unit, endpoint_value) VALUES
  ('COc1cc2c(cc1OCCN1CCN(C)CC1)ncc1c3ccc(C#N)cc3[nH]c21', '%Inh', '%', 97.7),
  ('CC(C)Oc1ccc2c(-c3ccnc(Nc4ccc(N5CCN(C)CC5)cc4)n3)cnn2n1', '%Inh', '%', 55);

Here's the next entry for you.
Which %Inh reading was recorded for the compound Fc1ccc(-c2ncn(CCCN3CCOCC3)c2-c2cccnc2)cc1 ?
0

====

System: STK33
measurement.conditions: concentration: 1 μM, replicates: in singlicate; n = 1
%Inh listing for selected compounds.
Report only the number, with the unit % understood.

Please review the following examples before continuing.
INSERT INTO results (compound, endpoint_value) VALUES
  ('Cc1nnc(-c2ccc3occ(-c4ccc(C(C)O)cc4)c3c2)o1 (centres unmarked)', 0),
  ('O=C(Nc1n[nH]c2cc(-c3cccc(F)c3)ccc12)C1CC1 [SB-735464]', 0),
  ('CC(C)(CN)c1nc(-c2ccc(Cl)c(O)c2)c(-c2ccncc2)[nH]1.O=C(O)C(F)(F)F [SB-477794]', 52),
  ('COc1cc(Nc2nccc(N3CCC(NC(=O)c4cccc(NC(C)=O)c4)C3)n2)cc(OC)c1OC (centres unmarked) [GSK1379754]', 2),
  ('NCC(NC(=O)c1cc(-c2cn[nH]c2)c(-c2ccnc3[nH]ccc23)s1)c1ccccc1.O=C(O)C(F)(F)F.O=C(O)C(F)(F)F (centres unmarked) [GSK1325775]', 79),
  ('COc1ccc(Nc2nccc(N3CCC(NC(=O)Nc4cc(C)ccc4C)C3)n2)cc1 (centres unmarked) [GSK1379741]', 0),
  ('Cc1ccc(C(=O)NCC(N)=O)cc1-n1c(C)cc(OCc2ccc(F)cc2F)c(Br)c1=O', 10);

From here, focus on the item given below.
Which value of %Inh has been reported for Cc1cn2c(=O)cc(N3CCOCC3)nc2n1Cc1cccc(Cl)c1Cl [GSK2334006] in the records?
4

====

Quick list: %Inh per entry.
System: SGK3
measurement.conditions: concentration: 1 μM, replicates: in singlicate; n = 1
Write down the numeric answer in % and omit the unit.

INSERT INTO results (compound, readout_name, endpoint_value) VALUES
  ('CC(C)(C)n1cnc2c(N)ncnc21', '%Inh', 0),
  ('O=C1Cc2cc(Nc3nc(NCc4cccc(S(=O)(=O)C(F)(F)F)c4)ncc3C(F)(F)F)ccc2N1', '%Inh', 33),
  ('Fc1ccc(-c2nn3c(OCC(F)(F)F)cccc3c2-c2ccncc2)cc1', '%Inh', 0);

Please look at the following compound next.
Sample CC(=O)Nc1ccc(COc2ccc(Nc3ccnc4cc(-c5ccccn5)ccc34)cc2)cc1.Cl — what was its %Inh?
8

====

Test system: MLK1
Construct: gene MAP3K9
measurement.conditions: concentration: 1 μM, replicates: in singlicate; n = 1
readout.name: %Inh (%)
API: value field is a number in %; no unit string.

Previously resolved entries follow.
INSERT INTO assay_data (compound_string, tested_target, endpoint_value) VALUES
  ('Cl.Oc1cccc(Nc2ccnc3cc(-c4ccncc4)ccc23)c1', 'MLK1', 0),
  ('Fc1ccc(-c2ncn(CCCN3CCOCC3)c2-c2ccccn2)cc1', 'MLK1', 0),
  ('Cc1c2ccc(N(C)c3ccnc(Nc4cccc(S(N)(=O)=O)c4)n3)cc2nn1Cc1ccccc1.Cl.Cl', 'MLK1', 0),
  ('CN1c2ccc(NCc3ccc(F)cc3)cc2-c2c(cnn2C)S1(=O)=O', 'MLK1', 15),
  ('Cc1ccc(C(=O)NCC(N)=O)cc1-n1c(C)cc(OCc2ccc(F)cc2F)c(Br)c1=O', 'MLK1', 25),
  ('O=C1Cc2cc(Nc3nc(NCc4cccc(S(=O)(=O)C(F)(F)F)c4)ncc3C(F)(F)F)ccc2N1', 'MLK1', 0),
  ('O=c1cc(N2CCOCC2)nc2n(Cc3cccc4ccccc34)ccn12', 'MLK1', 0),
  ('Cc1cn2c(=O)cc(N3CCOCC3)nc2n1Cc1cccc(Cl)c1Cl', 'MLK1', 0);

Here's the next entry for you.
For the compound shown here, O=C(NOCC1CC1)c1ccc(F)c(F)c1Nc1ccc(I)cc1Cl , give the reported %Inh.
0

====

Test system: FGFR3
measurement.conditions: concentration: 1 μM, replicates: in singlicate; n = 1
readout.name: %Inh (%)
Your answer is read as %, so omit the unit and give the number.

Solved cases (7 shown):
INSERT INTO results (compound, readout_name, measurement_unit, endpoint_value) VALUES
  ('COc1ccc(CNC(=O)NC2CCN(c3ccnc(Nc4ccc(OC)cc4)n3)C2)cc1 (centres unmarked)', '%Inh', '%', 18),
  ('Cc1ccc(NC(=O)c2ccnc(N3CCN(C)CC3)c2)cc1-c1ccc(C(=O)NCC2CC2)cc1', '%Inh', '%', 0),
  ('COC(=O)Nc1nc2cc(Oc3ccc(NC(=O)Nc4cc(F)ccc4F)cc3)ccc2[nH]1.Cl', '%Inh', '%', 19),
  ('COc1ccc(Nc2nccc(N3CCC(NC(=O)Nc4cc(C)ccc4C)C3)n2)cc1 (centres unmarked)', '%Inh', '%', 0),
  ('Nc1nccc(-c2c(-c3ccc(F)cc3)ncn2C2CCN(CC(F)(F)F)CC2)n1', '%Inh', '%', 0),
  ('COc1cc2c(cc1OCCN1CCN(C)CC1)ncc1c3ccc(C#N)cc3[nH]c21', '%Inh', '%', 0),
  ('O=C1NC(=O)C(N2CCc3ccccc32)=C1c1cccc(Cl)c1', '%Inh', '%', 0);

With those in mind, consider the next compound.
Look up %Inh with FGFR3 for this compound: CCc1ccnc(/C=C/c2n[nH]c3cc(Sc4ccccc4C(=O)NC)ccc23)c1
83

====

Tested on: PRKCQ
measurement.conditions: concentration: 1 μM, replicates: in singlicate; n = 1
readout.name: %Inh (%)
Write the answer as a number in %, unit excluded.

// known answers, use as guide
INSERT INTO measurements (compound, readout_name, endpoint_value) VALUES
  ('CN(C1=C(c2ccccc2)C(=O)NC1=O)c1ccccc1 [SB-334860]', '%Inh', 7),
  ('COc1ccc(S(=O)(=O)NC2CCN(c3cc(C)nc(Nc4cccc(C#N)c4)n3)CC2)cc1.O=C(O)C(F)(F)F [GSK1653539]', '%Inh', 0),
  ('O=c1cc(N2CCOCC2)nc2n(Cc3cccc4ccccc34)ccn12 [GSK2333389]', '%Inh', 0),
  ('Cl.Oc1cccc(Nc2ccnc3cc(-c4ccncc4)ccc23)c1 [GW494601]', '%Inh', 0);

Next compound, please.
Under PRKCQ: %Inh value of O=C(NCCNc1ccnc(Nc2ccc(F)cc2)n1)c1cc2ccccc2s1 [GSK1379874] ?
0
